system: THP1 cells; assay: IFN-β secretion in THP1 cell culture (5 h); type: cell-based, human; details: Homo sapiens, THP-1, 5 h, 30 μM compound, relative to 2′3′-cGAMP at 30 μM, read-out: % Effect at 30 μM relative to 2′3′-cGAMP
I'd appreciate it if you could supply activation at 30 µM values for the items below.
Give just the numeric value; % need not be written.

Which measured activation at 30 µM value corresponds to Nc1nc2c(ncn2[C@@H]2O[C@@H]3COP(=S)(S)O[C@H]4[C@H]5OC[C@]4(COP(=O)(O)O[C@@H]2[C@H]3F)O[C@H]5n2cnc3c(N)ncnc32)c(=O)[nH]1 (stereo partly shown) [Example 17] ?
145

Same for Nc1nc2c(ncn2[C@@H]2O[C@@H]3COP(=S)(S)O[C@H]4[C@H](F)[C@H](n5cnc6c(=O)[nH]cnc65)O[C@@H]4COP(O)(=S)O[C@@H]2[C@@H]3F)c(=O)[nH]1 (stereo partly shown) [Example 27]
164

Same for Nc1nc2c(ncn2[C@@H]2S[C@@H]3COP(=S)(S)O[C@H]4[C@H](F)[C@H](n5cnc6c(N)ncnc65)O[C@@H]4COP(=O)(O)O[C@@H]2[C@@H]3O)c(=O)[nH]1 (stereo partly shown) [Example 20]
137

Same for Nc1nc2c(ncn2[C@@H]2O[C@@H]3COP(=S)(S)O[C@H]4C[C@H](n5cnc6c(N)ncnc65)O[C@@H]4COP(=O)(O)O[C@@H]2C3)c(=O)[nH]1 (stereo partly shown) [Example 18]
153

Same for Nc1nc2c(ncn2[C@@H]2S[C@@H]3COP(=S)(S)O[C@H]4[C@H](F)[C@H](n5cnc6c(N)ncnc65)O[C@@H]4COP(O)(=S)O[C@@H]2[C@@H]3O)c(=O)[nH]1 (stereo partly shown) [Example 16]
107

Same for Nc1nc2c(ncn2[C@@H]2O[C@@H]3COP(O)(=S)O[C@H]4C[C@H](n5ccc6c(N)ncnc65)O[C@@H]4COP(=S)(S)O[C@@H]2C3)c(=O)[nH]1 (single isomer, unassigned) [Example 14]
422

Same for Nc1nc2c(ncn2[C@@H]2O[C@@H]3COP(=S)(S)O[C@H]4C[C@H](n5cnc6c(N)ncnc65)O[C@@H]4COP(O)(=S)O[C@@H]2C3)c(=O)[nH]1 (single isomer, unassigned) [Example 3]
128

Same for Nc1nc2c(ncn2[C@@H]2O[C@@H]3COP(=O)(O)O[C@H]4C[C@H](n5cnc6c(N)ncnc65)O[C@@H]4COP(=S)(S)O[C@@H]2C3)c(=O)[nH]1 (stereo partly shown) [Example 23]
152

Same for Nc1nc2c(ncn2[C@@H]2O[C@@H]3COP(=S)(S)O[C@H]4[C@H](F)[C@H](n5cnc6c(N)ncnc65)O[C@@H]4COP(=O)(O)O[C@@H]2[C@@H]3F)c(=O)[nH]1 (stereo partly shown) [Example 19]
250

Same for Nc1nc2c(ncn2[C@@H]2S[C@@H]3COP(=S)(S)O[C@H]4[C@H]5OC[C@]4(COP(=O)(O)O[C@@H]2[C@@H]3O)O[C@H]5n2cnc3c(N)ncnc32)c(=O)[nH]1 (stereo partly shown) [Example 21]
45

Same for Nc1nc2c(ncn2[C@@H]2O[C@@H]3COP(=S)(S)O[C@H]4[C@H](F)[C@H](n5cnc6c(N)ncnc65)O[C@@H]4COP(O)(=S)O[C@@H]2[C@@H]3F)c(=O)[nH]1 (single isomer, unassigned) [Example 1]
165

Same for Nc1nc2c(ncn2[C@@H]2O[C@@H]3COP(O)(=S)O[C@H]4[C@H]5OC[C@]4(COP(=S)(S)O[C@@H]2[C@H]3F)O[C@H]5n2cnc3c(N)ncnc32)c(=O)[nH]1 (single isomer, unassigned) [Example 15]
357

Same for Nc1nc2c(ncn2[C@@H]2O[C@@H]3COP(=S)(S)O[C@H]4C[C@H](n5ccc6c(N)ncnc65)O[C@@H]4COP(O)(=S)O[C@@H]2C3)c(=O)[nH]1 (single isomer, unassigned) [Example 5]
95

----------
I'd appreciate it if you could supply EC50 values for the items below.
target: full-length WT STING (Homo sapiens (Human), UniProt Q86WV6, H232R); assay: 3H-cGAMP filtration binding assay (WT STING); conditions: competition with tritiated cGAMP ligand, WT STING membrane; read-out: EC50
Sequence (Q86WV6 whole entry, looked up, stated change not applied): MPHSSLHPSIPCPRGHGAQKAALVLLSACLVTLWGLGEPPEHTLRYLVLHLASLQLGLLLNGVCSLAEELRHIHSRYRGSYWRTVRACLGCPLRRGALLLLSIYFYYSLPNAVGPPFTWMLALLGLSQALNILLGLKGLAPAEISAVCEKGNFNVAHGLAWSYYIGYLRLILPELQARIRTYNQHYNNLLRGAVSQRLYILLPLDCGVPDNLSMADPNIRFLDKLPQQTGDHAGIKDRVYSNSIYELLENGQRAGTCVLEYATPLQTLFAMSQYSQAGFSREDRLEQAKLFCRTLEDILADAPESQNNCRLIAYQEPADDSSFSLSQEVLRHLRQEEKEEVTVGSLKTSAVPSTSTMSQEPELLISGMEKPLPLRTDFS

Which measured EC50 value corresponds to Nc1nc2c(ncn2[C@@H]2O[C@@H]3COP(=S)(S)O[C@H]4C[C@H](n5ccc6c(N)ncnc65)O[C@@H]4COP(O)(=S)O[C@@H]2C3)c(=O)[nH]1 (single isomer, unassigned) [Example 6] ?
115 nM

Same for Nc1nc2c(ncn2[C@@H]2O[C@@H]3COP(=S)(S)O[C@H]4C[C@H](n5cnc6c(N)ncnc65)O[C@@H]4COP(O)(=S)O[C@@H]2C3)c(=O)[nH]1 (single isomer, unassigned) [Example 3]
4 nM

Same for Nc1nc2c(ncn2[C@@H]2O[C@@H]3COP(=O)(O)O[C@H]4C[C@H](n5cnc6c(N)ncnc65)O[C@@H]4COP(=S)(S)O[C@@H]2C3)c(=O)[nH]1 (stereo partly shown)
69 nM

Same for Nc1nc2c(ncn2[C@@H]2O[C@@H]3COP(=S)(S)O[C@H]4C[C@H](c5cnc6c(N)ncnn56)O[C@@H]4COP(O)(=S)O[C@@H]2C3)c(=O)[nH]1 (single isomer, unassigned) [Example 8]
13 nM

Same for Nc1nc2c(ncn2[C@@H]2O[C@@H]3COP(=S)(S)O[C@H]4C[C@H](n5cnc6c(=O)[nH]cnc65)O[C@@H]4COP(O)(=S)O[C@@H]2C3)c(=O)[nH]1 (single isomer, unassigned) [Example 25]
2 nM

Same for Nc1nc2c(ncn2[C@@H]2O[C@@H]3COP(=S)(S)O[C@H]4C[C@H](n5cnc6c(=O)[nH]cnc65)O[C@@H]4COP(O)(=S)O[C@@H]2C3)c(=O)[nH]1 (single isomer, unassigned) [Example 24]
19 nM

Same for Nc1nc2c(ncn2[C@@H]2O[C@@H]3COP(O)(=S)O[C@H]4[C@H](F)[C@H](n5cnc6c(N)ncnc65)O[C@@H]4COP(=S)(S)O[C@@H]2[C@@H]3F)c(=O)[nH]1 (single isomer, unassigned) [Example 12]
171 nM

----------
I'd appreciate it if you could supply pEC50 values for the items below.
molecular target: full-length HAQ STING (Homo sapiens (Human), UniProt Q86WV6, G230A/H232R/R293Q/R71H); assay: 3H-cGAMP filtration binding assay (HAQ STING); conditions: competition with tritiated cGAMP ligand, HAQ STING membrane
Sequence (Q86WV6 whole entry, looked up, stated change not applied): as above
Notebook: values listed as pEC50 are -log10 of the concentration (mol/L).

Which measured pEC50 value corresponds to Nc1nc2c(ncn2[C@@H]2O[C@@H]3COP(=S)(S)O[C@H]4[C@H](F)[C@H](n5cnc6c(N)ncnc65)O[C@@H]4COP(O)(=S)O[C@@H]2[C@@H]3F)c(=O)[nH]1 (single isomer, unassigned) [Example 2] ?
8.70

Same for Nc1nc2c(ncn2[C@@H]2S[C@@H]3COP(=S)(S)O[C@H]4[C@H](F)[C@H](n5cnc6c(N)ncnc65)O[C@@H]4COP(O)(=S)O[C@@H]2[C@@H]3O)c(=O)[nH]1 (stereo partly drawn) [Example 16]
8.30

Same for Nc1nc2c(ncn2[C@@H]2S[C@@H]3COP(=S)(S)O[C@H]4[C@H]5OC[C@]4(COP(=O)(O)O[C@@H]2[C@@H]3O)O[C@H]5n2cnc3c(N)ncnc32)c(=O)[nH]1 (stereo partly drawn) [Example 21]
6.66

Same for Nc1nc2c(ncn2[C@@H]2O[C@@H]3COP(=S)(S)O[C@H]4C[C@H](c5cnc6c(N)ncnn56)O[C@@H]4COP(O)(=S)O[C@@H]2C3)c(=O)[nH]1 (single isomer, unassigned) [Example 8]
8.15

Same for Nc1nc2c(ncn2[C@@H]2O[C@@H]3COP(=S)(S)O[C@H]4[C@H]5OC[C@]4(COP(O)(=S)O[C@@H]2[C@H]3F)O[C@H]5n2cnc3c(N)ncnc32)c(=O)[nH]1 (stereo partly drawn) [Example 9]
6.46

Same for Nc1nc2c(ncn2[C@@H]2O[C@@H]3COP(=S)(S)O[C@H]4[C@H]5OC[C@]4(COP(=O)(O)O[C@@H]2[C@H]3F)O[C@H]5n2cnc3c(N)ncnc32)c(=O)[nH]1 (stereo partly drawn) [Example 17]
7.82

Same for Nc1nc2c(ncn2[C@@H]2O[C@@H]3COP(=S)(S)O[C@H]4C[C@H](n5cnc6c(N)ncnc65)O[C@@H]4COP(O)(=S)O[C@@H]2C3)c(=O)[nH]1 (single isomer, unassigned) [Example 3]
8.70

----------
system: THP1 cells; experiment: IFN-β secretion in THP1 cell culture (5 h); assay type: cell-based, human; conditions: Homo sapiens, THP-1, 5 h, 30 μM compound, relative to 2′3′-cGAMP at 30 μM, read-out: % Effect at 30 μM relative to 2′3′-cGAMP
measured_parameter: activation at 30 µM (%)
Give just the numeric value; % need not be written.

What reported activation at 30 µM corresponds to Nc1nc2c(ncn2[C@@H]2O[C@@H]3COP(O)(=S)O[C@H]4C[C@H](n5cnc6c(=O)[nH]cnc65)O[C@@H]4COP(=S)(S)O[C@@H]2C3)c(=O)[nH]1 (stereo partly drawn) on THP1 cells?
75

Same for Nc1nc2c(ncn2[C@@H]2O[C@@H]3COP(=S)(S)O[C@H]4[C@H]5OC[C@]4(COP(O)(=S)O[C@@H]2[C@H]3F)O[C@H]5n2cnc3c(N)ncnc32)c(=O)[nH]1 (stereo partly drawn)
26

Same for Nc1nc2c(ncn2[C@@H]2O[C@@H]3COP(=O)(O)O[C@H]4[C@H](F)[C@H](n5cnc6c(N)ncnc65)O[C@@H]4COP(=S)(S)O[C@@H]2[C@@H]3F)c(=O)[nH]1 (stereo partly drawn)
117
